Reference for the values: PubChem BioAssay (NCATS)

# measurement protocol: P-glycoprotein substrates identified in KB-8-5-11 adenocarcinoma cell line, qHTS therapeutic library screen (AID 1346987); also: nearly all actives have a fitted effect of over 65% in size
# run conditions: KB-8-5-11 (P-gp overexpressing) viability, CellTiter-Glo, 72 h; series mostly up to 44.5 µM
Records with an inconclusive call do not appear. The source made the active and inactive calls. Calls follow the shape of the dose curve; as a rule, active = well fitted inhibition curve with a large enough effect; inconclusive = small, poorly fitted or top-dose-only effect; inactive = flat fitted curve, though single readings scatter.
Form entry, call: pick from Y for active, N for inactive

Before answering, review these 5 worked examples.
compound: Cc1cc(C(C)(C)C)cc(C)c1CC1=NCCN1
assigned class: N

compound: Cn1c(=O)c2[nH]cnc2n(C)c1=O
assigned class: N

compound: CC1(C)O[C@H]2CC(=O)OC[C@]23[C@H]2CC[C@@]4(C)[C@H](c5ccoc5)OC(=O)[C@H]5O[C@]54[C@]2(C)C(=O)C[C@@H]13
assigned class: N

compound: CS(=O)(=O)Nc1ccc([N+](=O)[O-])cc1Oc1ccccc1
assigned class: N

compound: COc1ccc2c(c1)c(CC(=O)O)c(C)n2C(=O)c1ccc(Cl)cc1
assigned class: N

Recorded call for `O=c1c(-c2ccc(O)cc2)coc2cc(O)cc(O)c12` ?
N

Kindly provide the recorded test outcome for the following compound: `Clc1ccc2nsnc2c1NC1=NCCN1`
N

Status in this test for `Cc1cn([C@H]2C=C[C@@H](CO)O2)c(=O)[nH]c1=O` ?
N

Kindly provide the recorded test outcome for the following compound: `CCOC(=O)C(C)(C)Oc1ccc(Cl)cc1`
N

Any idea what this test logged for `O=C1N(c2ccccc2)c2ccccc2C1(Cc1ccncc1)Cc1ccncc1` ?
N
